Molecular target: Cytochrome P450 1A2 (Homo sapiens) (UniProt P05177)
Sequence (P05177 whole entry, looked up): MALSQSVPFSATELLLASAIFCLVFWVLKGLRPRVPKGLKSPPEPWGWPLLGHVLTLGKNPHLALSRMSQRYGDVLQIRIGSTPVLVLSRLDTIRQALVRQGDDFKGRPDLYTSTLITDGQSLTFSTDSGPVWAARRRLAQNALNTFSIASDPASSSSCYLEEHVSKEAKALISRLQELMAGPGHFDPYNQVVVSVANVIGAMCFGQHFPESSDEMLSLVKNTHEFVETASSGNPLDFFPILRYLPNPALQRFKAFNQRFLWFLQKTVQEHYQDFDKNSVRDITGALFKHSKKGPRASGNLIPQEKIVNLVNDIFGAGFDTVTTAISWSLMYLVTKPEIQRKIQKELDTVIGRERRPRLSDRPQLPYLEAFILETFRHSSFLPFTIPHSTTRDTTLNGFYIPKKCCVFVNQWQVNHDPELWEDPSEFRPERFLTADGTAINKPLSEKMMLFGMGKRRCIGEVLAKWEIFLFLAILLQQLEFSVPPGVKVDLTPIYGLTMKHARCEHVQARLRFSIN
Assay: Cytochrome panel assay with activity outcomes
Conditions: recombinant CYP, pro-luciferin dealkylation, luminescence, p450-cyp1a2; series mostly up to 57.1 µM
Hit rate of the full screen: of about 16,000 compounds, about 5,700 (36%) were called active. Not shown: some 24% with an inconclusive outcome. Calls follow the shape of the dose curve; as a rule, active = well fitted curve in the direction sought with a large enough effect; inconclusive = small, poorly fitted or top-dose-only effect, or effect the other way; inactive = no such curve, though single readings can be large or run the other way. Some of the results follow.
Reply using exactly one outcome from active, inactive

See these solved cases before continuing.
>  <molecule>
CCCC[C@H]1C[C@@H]1[C@@H]1N(P(=O)(c2ccccc2)c2ccccc2)[C@](CO)(c2ccccc2)CC12CC2

>  <label>
inactive

$$$$
>  <molecule>
c1ccc(-c2nnc(SCCC3OCCCO3)o2)cc1

>  <label>
active

$$$$
>  <molecule>
O=C(NN1C(=O)c2ccccc2C1=O)C1CCCCC1

>  <label>
inactive

$$$$
>  <molecule>
COc1ccccc1CN(Cc1cc2cc3c(cc2[nH]c1=O)OCCO3)Cc1nnnn1Cc1ccco1

>  <label>
active

$$$$
>  <molecule>
CCCCCn1c(CN2CCCCC2C)nc2c1c(=O)n(C)c(=O)n2C (stereo not drawn)

>  <label>
inactive

$$$$
>  <molecule>
COc1ccc(/C=N/n2c(-c3cccs3)n[nH]c2=S)cc1

>  <label>
active

$$$$
>  <molecule>
Cc1ccc(/C=N/n2c(-c3cccs3)n[nH]c2=S)cc1

>  <label>
active

$$$$
>  <molecule>
CC(=O)N1CCC(=O)N(C(C)C)c2ccccc21

>  <label>
inactive

$$$$
>  <molecule>
Cc1noc(C)c1-c1cc(Nc2ccc(F)cc2)ncn1

>  <label>
active

$$$$
>  <molecule>
Cc1ccc(-c2n[nH]c(=S)n2/N=C/c2cccn2C)cc1

>  <label>
active

$$$$

Ask | Assay result, entry CC1(c2ccccc2)NC(=O)N(CC(=O)NCCC2=CCCCC2)C1=O (stereo not drawn) — outcome?
Reply | active

Ask | How about Cc1ccc(S(=O)(=O)N(CC(=O)NCCC2=CCCCC2)Cc2ccccc2F)cc1 ?
Reply | inactive

Ask | Input Cc1ccc(C(=O)COC(=O)CNC(=O)C(c2ccccc2)c2ccccc2)cc1[N+](=O)[O-]
Reply | inactive

Ask | Same again, this time with O=C(COc1ccc(Cl)cc1)NCCC1=CCCCC1
Reply | active

Ask | Could you do the same for CCOc1ccc(NC(=S)N(Cc2ccc(N(C)C)cc2)Cc2ccco2)cc1 , please?
Reply | active
